All figures here come from patent US20220073604A1.

target: T1, eukaryotically produced human IL-6 (human, UniProt P05231 30-212); assay: SPR; purified Fab; IL-6 coated on CM5 chip;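 also: dissociation rate taken from the wash phase, association rate fitted over the injection phase with analyte concentration and dissociation rate as inputs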
T1 construct: also called eukIL-6; Euk IL-6
Kindly state log10(Kd) for each of the entries shown.
Use the decimal logarithm of Kd (nM).

These recorded examples may help you get a feel for the data.
Fab 18C7 (Fab, V domains shown, Fab; also called 18C7 (090-423)) VH: EVQLVESGPGLVKPSQTLSLTCTVSGGSITASFDAWSWIRQPPGKGLEWMGVIAYDGSTYYSPSLKSRTSISRDTSKNQFSLQLSSVTPEDTAVYYCARKSSWLIGYGMDYWGKGTLVTVSS VL: QAGLTQPSALSVTLGQTAKITCQGGSLGSSYAHWYQQKPGQAPVLVIYDDDSRPSGIPERFSGSSSGGRATLTISGAQAEDEGDYYCQSADSSGNAAVFGGGTHLTVLG
0.89
Fab 24A3 (Fab, V domains shown, Fab; also called 28f10(24A3)) VH: QVQVQESGGGLVQPGGSLRLSCAASGFTFSNYAMSWVRQAPGKGLEWVSGISFRGGMISYVDSVKGRFTISRDNAKNTLYLQMNSLKPEDTAVYYCAKNSGSSRSNALDAWGQGTLVTVSS VL: LNFMLTQPPSVSGSPGQKFTIRCTGSFRSDSYVNWYQQLPGTAPKLLINYDDRRVSGVPSRFSGSKSGNSASLTIDGLQAEDEAEYYCSFWDHTFGGHVFGGGTKLTVLG
-0.23
Fab 29B11 (Fab, V domains shown, Fab) VH: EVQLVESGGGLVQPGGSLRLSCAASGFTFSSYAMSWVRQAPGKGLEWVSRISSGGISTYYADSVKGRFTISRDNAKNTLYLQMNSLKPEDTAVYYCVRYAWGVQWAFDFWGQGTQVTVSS VL: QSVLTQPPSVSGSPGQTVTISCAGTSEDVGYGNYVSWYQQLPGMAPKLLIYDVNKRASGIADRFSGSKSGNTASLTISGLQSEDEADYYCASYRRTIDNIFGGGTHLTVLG
-0.29
Fab 24E9 (Fab, V domains shown, Fab) VH: EVQLVESGGGLVQPGGSLRLSCAASGFTFSTYAMSWVRQAPGKGPEWVSRISSGGGSTNYADSVKGRFTISRDNAKKTLYLQMKSLKPEDTAVYYCANRAGWGMGDYWGQGTQVTVSS VL: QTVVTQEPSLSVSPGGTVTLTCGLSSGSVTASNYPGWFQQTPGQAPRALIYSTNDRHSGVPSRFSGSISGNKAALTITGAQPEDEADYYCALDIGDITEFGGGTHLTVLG
-0.15
Fab 17F10 (Fab, V domains shown, Fab; also called 17F10 pur Fab 68 nM) VH: EVQLQESGPGLVKPSQTLSLTCTVSGGSIATSYYAWSWIRQPPGKGLEWMGVIDYDGDTYYKPSLKSRTSISRDTSKNQFSLQLSSVTPEDTAVYYCARAGLGDSYYLGTYYAMDYWGKGTLVTVSS VL: QAGLTQPPSVSGSPGKTVTISCAGTTSDVGTGNFVSWYQQLPGMAPKLLIYDVNKRASGIADRFSGSKSGNTASLTISGLQSEDEADYYCASYRSLNNVVFGGGTHLTVLG
0.78

Field: log10(Kd). Fill in for each record below.
1. Fab 24C9 (Fab, V domains shown, Fab) VH: QVQLVESGGGLVQPGGSLRLSCAASGFTFSSYRMYWVRQPPGKGLEWVSAISAGGGSTYYGDSVKGRFTISRDNAKNTVYLQMNSLKPEDTALYYCKKSTWADGESDYWGQGTQVTVSS VL: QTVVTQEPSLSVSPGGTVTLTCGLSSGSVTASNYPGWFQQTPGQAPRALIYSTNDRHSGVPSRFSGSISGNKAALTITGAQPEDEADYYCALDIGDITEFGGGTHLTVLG
2. Fab 24D10 (Fab, V domains shown, Fab; also called pur24d10; 28f12(24D10)) VH: QLQVVESGGGLVQPGGSLRLSCAASGFTFSSYAMSWVRQAPGKGPEWVSRISSGGGSTSYADSVKGRFTISRDNAKNTLYLQMNSLKPEDTAVYYCANRAGWGMGDYWGQGTQVTVSS VL: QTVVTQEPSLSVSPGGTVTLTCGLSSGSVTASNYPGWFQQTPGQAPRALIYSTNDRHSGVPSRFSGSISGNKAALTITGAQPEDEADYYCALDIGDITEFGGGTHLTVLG

Completion:
[0.23, -0.07]
